This collection of values is drawn from patent US10052301B2.

Tested on: PC-3 (human prostate carcinoma cells)
Test: MTT cell proliferation and viability assay, PC-3
Format: cell-based
Details: Table 3, 72 h, read-out: Inhibition Concentration (IC50) μM PC-3 (Prostate)
Measured quantity: IC50
Your reply should be a number followed by the unit it is expressed in.

Incoming: Could you tell me which IC50 is on file for COc1ccc(/C=C/C(=O)OCC(O)COC(=O)/C=C/c2ccccc2)cc1OC (stereo not shown) ?
Outgoing: 9.07 µM

Incoming: Now the compound O=C(/C=C/c1ccc(O)c(O)c1)OCC(O)COC(=O)/C=C/c1ccc(O)c(O)c1
Outgoing: 6.76 µM

Incoming: Then this compound: O=C(/C=C/c1ccccc1)OCC(O)COC(=O)/C=C/c1ccc(O)c(O)c1 (stereo not shown)
Outgoing: 9.04 µM

Incoming: # repeat for CC(=O)O[C@H]1C(=O)[C@@]2(C)[C@H]([C@H](OC(=O)c3ccccc3)[C@]3(O)C[C@H](OC(=O)[C@H](O)[C@@H](NC(=O)c4ccccc4)c4ccccc4)C(C)=C1C3(C)C)[C@]1(OC(C)=O)CO[C@@H]1C[C@@H]2O [paclitaxel, reference compound]
Outgoing: 1.32 µM

---

Tested on: MCF-7 (human breast carcinoma cells)
Experiment: MTT cell proliferation and viability assay, MCF-7
Assay type: cell-based
Details: MCF7, Table 3, 72 h, read-out: Inhibition Concentration (IC50) μM MCF-7 (Breast)
Measured quantity: IC50 (µM)
The reply should be a number in µM, with the unit left off.

Incoming: Entry COc1ccc(/C=C/C(=O)OCC(O)COC(=O)/C=C/c2ccccc2)cc1OC (stereo not shown) has what IC50?
Outgoing: 85.2

Incoming: One more compound: O=C(/C=C/c1ccccc1)OCC(O)COC(=O)/C=C/c1ccc(O)c(O)c1 (stereo not shown)
Outgoing: 33

Incoming: Check O=C(/C=C/c1ccc(O)c(O)c1)OCC(O)COC(=O)/C=C/c1ccc(O)c(O)c1 too.
Outgoing: 74.5

Incoming: Same lookup for CC(=O)O[C@H]1C(=O)[C@@]2(C)[C@H]([C@H](OC(=O)c3ccccc3)[C@]3(O)C[C@H](OC(=O)[C@H](O)[C@@H](NC(=O)c4ccccc4)c4ccccc4)C(C)=C1C3(C)C)[C@]1(OC(C)=O)CO[C@@H]1C[C@@H]2O [paclitaxel, reference compound] , please.
Outgoing: 11.7
